This section presents molecules with their documented IC50 values.
# System: A549
# experimentNotes: Anticancer activity against human A549 cells assessed as reduction in cell viability measured after 72 hrs by SRB assay
# Type: functional, cell-based
# testContext: A549, 72 h

>  <molecule>
Cc1c2ccncc2c(C)c2c1[nH]c1ccccc12 [ELLIPTECINE]

>  <subjectOfTest>
A549

>  <unitsSymbol>
µM

>  <relationSymbol>
=

>  <IC50>
2.25

$$$$
>  <molecule>
C=C1CC[C@@H]2[C@](C)(COC(C)=O)[C@H](OC(C)=O)CC[C@@]2(C)[C@@H]1C[C@H](SC(=S)N1CCN(C(c2ccccc2)c2ccccc2)CC1)C1=CCOC1=O

>  <subjectOfTest>
A549

>  <unitsSymbol>
µM

>  <relationSymbol>
>

>  <IC50>
50

$$$$
>  <molecule>
C=C1CC[C@@H]2[C@](C)(COC(C)=O)[C@H](OC(C)=O)CC[C@@]2(C)[C@@H]1C[C@H](SC(=S)N1CCN(c2ccc(O)cc2)CC1)C1=CCOC1=O

>  <subjectOfTest>
A549

>  <unitsSymbol>
µM

>  <relationSymbol>
=

>  <IC50>
22.1

$$$$

---

# System: HT-29
# experimentNotes: Anticancer activity against human HT-29 cells assessed as reduction in cell viability measured after 72 hrs by SRB assay
# Type: functional, cell-based
# testContext: HT-29, 72 h
Rule: measured IC50 below 7 µM gets fulfilled; anything equal to or greater than 7 µM gets not fulfilled.

>  <smilesStructure>
C=C1CC[C@@H]2[C@](C)(COC(C)=O)[C@H](OC(C)=O)CC[C@@]2(C)[C@@H]1C[C@H](SC(=S)N1CCC(Cc2ccccc2)CC1)C1=CCOC1=O

>  <subjectOfTest>
HT-29

>  <assignedCategory>
not fulfilled

$$$$
>  <smilesStructure>
C=C1CC[C@@H]2[C@](C)(COC(C)=O)[C@H](OC(C)=O)CC[C@@]2(C)[C@@H]1C[C@H](SC(=S)N(CC)Cc1ccncc1)C1=CCOC1=O

>  <subjectOfTest>
HT-29

>  <assignedCategory>
fulfilled

$$$$
>  <smilesStructure>
C=C1CC[C@@H]2[C@](C)(COC(C)=O)[C@H](OC(C)=O)CC[C@@]2(C)[C@@H]1C[C@H](SC(=S)N(Cc1ccccc1)C(C)C)C1=CCOC1=O

>  <subjectOfTest>
HT-29

>  <assignedCategory>
fulfilled

$$$$
>  <smilesStructure>
C=C1CC[C@@H]2[C@](C)(COC(C)=O)[C@H](OC(C)=O)CC[C@@]2(C)[C@@H]1C[C@H](SC(=S)N1CCN(c2ccccc2)CC1)C1=CCOC1=O

>  <subjectOfTest>
HT-29

>  <assignedCategory>
not fulfilled

$$$$
>  <smilesStructure>
C=C1CC[C@@H]2[C@](C)(COC(C)=O)[C@H](OC(C)=O)CC[C@@]2(C)[C@@H]1C[C@H](SC(=S)N(C)Cc1ccccc1)C1=CCOC1=O

>  <subjectOfTest>
HT-29

>  <assignedCategory>
fulfilled

$$$$

---

# System: A549
# experimentNotes: Anticancer activity against human A549 cells assessed as reduction in cell viability measured after 72 hrs by SRB assay
# Assay type: functional, cell-based
# testContext: A549, 72 h
pIC50: −log10 of the molar value.

>  <molecule>
C=C1CC[C@@H]2[C@](C)(COC(C)=O)[C@H](OC(C)=O)CC[C@@]2(C)[C@@H]1C[C@H](SC(=S)N(C)Cc1ccccc1)C1=CCOC1=O

>  <subjectOfTest>
A549

>  <pIC50>
5.16

$$$$
>  <molecule>
C=C1CC[C@@H]2[C@](C)(COC(C)=O)[C@H](OC(C)=O)CC[C@@]2(C)[C@@H]1C[C@H](SC(=S)N1CCc2ccccc2C1c1ccccc1)C1=CCOC1=O (stereo partly drawn)

>  <subjectOfTest>
A549

>  <pIC50>
4.53

$$$$
>  <molecule>
C=C1CC[C@@H]2[C@](C)(COC(C)=O)[C@H](OC(C)=O)CC[C@@]2(C)[C@@H]1C[C@H](SC(=S)N1CCc2ccccc2C1)C1=CCOC1=O

>  <subjectOfTest>
A549

>  <pIC50>
4.60

$$$$
